Experiment: Acute toxicity test, oral
Assay type: in vivo
Condition Context: mouse, in vivo, mice, not so accurate
Property Name: LD50

Documented LD50 of OC[C@H]1O[C@H](O[C@H]2O[C@H](CO)[C@@H](O)[C@H](O)[C@H]2O)[C@H](O)[C@@H](O)[C@@H]1O : ≥ 50000 mg/kg
